biological target: T1, BMPRIa receptor-Fc fusion (UniProt P36894 24-152, limits assumed); test: ELISA-like plate assay, captured BMP-7 from conditioned media, receptor-Fc detection
T1 construct: also called ALK-3
T1 sequence (P36894 24-152 limits assumed): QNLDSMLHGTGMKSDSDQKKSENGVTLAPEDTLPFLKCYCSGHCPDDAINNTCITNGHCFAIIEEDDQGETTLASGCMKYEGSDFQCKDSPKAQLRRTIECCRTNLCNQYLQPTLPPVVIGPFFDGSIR
Value Type: BMPRIa binding (relative to wild type = 1.0)

Form field BMPRIa binding (relative to wild type = 1.0), entry BMP-7 variant F93A (ligand, In conditioned media; numbering on mature BMP-7) STGGKQRSQNRSKTPKNQEALRMASVAENSSSDQRQACKKHELYVSFRDLGWQDWIIAPEGYAAYYCEGECAFPLNSYMNATNHAIVQTLVHAINPETVPKPCCAPTQLNAISVLYFDDSSNVILKKYRNMVVRACGCH : 0.1 relative to wild type

Others:
Entry BMP-7 variant I86Q (ligand, In conditioned media; numbering on mature BMP-7) STGGKQRSQNRSKTPKNQEALRMASVAENSSSDQRQACKKHELYVSFRDLGWQDWIIAPEGYAAYYCEGECAFPLNSYMNATNHAQVQTLVHFINPETVPKPCCAPTQLNAISVLYFDDSSNVILKKYRNMVVRACGCH — recorded BMPRIa binding (relative to wild type = 1.0) = 0.66 relative to wild type
